Where do the numbers come from? From ChEMBL document CHEMBL5634174.

# Test Target: Sialyltransferase ST3Gal-I (Rattus norvegicus) (UniProt Q6H8N0)
# Sequence (whole entry): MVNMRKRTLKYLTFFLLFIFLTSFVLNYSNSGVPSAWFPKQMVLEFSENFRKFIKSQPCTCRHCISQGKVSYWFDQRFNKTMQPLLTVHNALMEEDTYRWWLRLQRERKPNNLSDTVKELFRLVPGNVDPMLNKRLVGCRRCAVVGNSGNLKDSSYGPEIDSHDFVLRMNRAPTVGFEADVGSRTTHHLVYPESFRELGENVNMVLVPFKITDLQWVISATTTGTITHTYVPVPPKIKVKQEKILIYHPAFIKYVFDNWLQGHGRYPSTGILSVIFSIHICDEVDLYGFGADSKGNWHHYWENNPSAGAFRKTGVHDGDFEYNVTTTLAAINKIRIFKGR
# Experiment Notes: Inhibition of rat ST3GAL1 at 500 uM by UPLC-based assay relative to control
Property: inhibition (%)
One number for each entry, in %.

{"Structure Notation": "C[C@H](CCCOS(=O)(=O)O)[C@H]1CC[C@H]2[C@@H]3CC[C@@H]4C[C@H](O)CC[C@]4(C)[C@H]3CC[C@]12C", "Numeric Value": 3}
{"Structure Notation": "C[C@H](CCC(=O)O)[C@H]1CC[C@H]2[C@@H]3[C@@H](O)C[C@@H]4C[C@H](O)CC[C@]4(C)[C@H]3CC[C@]12C", "Numeric Value": 3}
{"Structure Notation": "C[C@H](CCCS(=O)(=O)O)[C@H]1CC[C@H]2[C@@H]3CC[C@@H]4C[C@H](O)CC[C@]4(C)[C@H]3CC[C@]12C", "Numeric Value": 5}
{"Structure Notation": "C[C@H](CCC(=O)O)[C@H]1CC[C@H]2[C@@H]3C[C@H](O)[C@@H]4C[C@H](O)CC[C@]4(C)[C@H]3CC[C@]12C", "Numeric Value": 7}

Turning to the following compound.
Query block: What inhibition value was documented for this compound, "C[C@H](CCC(=O)O)[C@H]1CC[C@H]2[C@@H]3[C@H](O)C[C@@H]4C[C@H](O)CC[C@]4(C)[C@H]3CC[C@]12C" ?
Result block: 6
